# maps each entry to its SH2 binding enrichment
Target: Grb2 SH2 (UniProt P62993)
Sequence (P62993 whole entry, looked up): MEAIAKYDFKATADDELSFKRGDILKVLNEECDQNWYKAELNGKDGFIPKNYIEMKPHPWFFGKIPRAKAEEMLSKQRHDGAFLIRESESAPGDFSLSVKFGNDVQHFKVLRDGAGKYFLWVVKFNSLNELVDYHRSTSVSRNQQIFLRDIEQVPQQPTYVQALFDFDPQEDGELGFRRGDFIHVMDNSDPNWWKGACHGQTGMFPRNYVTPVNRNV
Assay: SH2 binding enrichment of the phosphorylated peptide, bacterial display (enrichment ratio); higher = better substrate or ligand; peptides without Tyr show the background
Give only the figure.

* FKNGDYNEVMK [LCT_Y1638] | 0.744

Any idea what SH2 binding enrichment was measured for KGEDFYCVTCP [FHL1_Y149_H154P] ?
1.01

Any idea what SH2 binding enrichment was measured for LKDEDYLKDTV [HAUS3_Y582_I586T] ?
0.708

Any idea what SH2 binding enrichment was measured for LQLLGYRPVFS [CHST6_Y358_YF] ?
0.806

Any idea what SH2 binding enrichment was measured for LGSWTYTKTVS [ROS1_Y144] ?
0.817

Any idea what SH2 binding enrichment was measured for HNLDYYKKTTN [FGFR3_Y648] ?
0.732

Any idea what SH2 binding enrichment was measured for HNLYSYPTKYE [MYO3A_Y1396_H1400Y] ?
0.757

Any idea what SH2 binding enrichment was measured for VKPENDRRLDI [VHL_Y175_Y175D] ?
1.12

Any idea what SH2 binding enrichment was measured for ADRNHYRRYPR [YBX1_Y145] ?
0.748

Any idea what SH2 binding enrichment was measured for SPDMLYQFLKQ [RPAP3_Y567_YF] ?
0.782

Any idea what SH2 binding enrichment was measured for REIHDYIKHLG [UNC13C_Y308_D304E] ?
0.788

Any idea what SH2 binding enrichment was measured for LEDPMYDIIRD [RP9_Y142_H137L] ?
0.863

Any idea what SH2 binding enrichment was measured for EVDETYVPKEF [ALB_Y521] ?
0.881

Any idea what SH2 binding enrichment was measured for HLQQSNLPRGT [TEX45_Y396_Y396N] ?
0.837

* * *

Target: EPHB2 (UniProt P29323)
Sequence (P29323 whole entry, looked up): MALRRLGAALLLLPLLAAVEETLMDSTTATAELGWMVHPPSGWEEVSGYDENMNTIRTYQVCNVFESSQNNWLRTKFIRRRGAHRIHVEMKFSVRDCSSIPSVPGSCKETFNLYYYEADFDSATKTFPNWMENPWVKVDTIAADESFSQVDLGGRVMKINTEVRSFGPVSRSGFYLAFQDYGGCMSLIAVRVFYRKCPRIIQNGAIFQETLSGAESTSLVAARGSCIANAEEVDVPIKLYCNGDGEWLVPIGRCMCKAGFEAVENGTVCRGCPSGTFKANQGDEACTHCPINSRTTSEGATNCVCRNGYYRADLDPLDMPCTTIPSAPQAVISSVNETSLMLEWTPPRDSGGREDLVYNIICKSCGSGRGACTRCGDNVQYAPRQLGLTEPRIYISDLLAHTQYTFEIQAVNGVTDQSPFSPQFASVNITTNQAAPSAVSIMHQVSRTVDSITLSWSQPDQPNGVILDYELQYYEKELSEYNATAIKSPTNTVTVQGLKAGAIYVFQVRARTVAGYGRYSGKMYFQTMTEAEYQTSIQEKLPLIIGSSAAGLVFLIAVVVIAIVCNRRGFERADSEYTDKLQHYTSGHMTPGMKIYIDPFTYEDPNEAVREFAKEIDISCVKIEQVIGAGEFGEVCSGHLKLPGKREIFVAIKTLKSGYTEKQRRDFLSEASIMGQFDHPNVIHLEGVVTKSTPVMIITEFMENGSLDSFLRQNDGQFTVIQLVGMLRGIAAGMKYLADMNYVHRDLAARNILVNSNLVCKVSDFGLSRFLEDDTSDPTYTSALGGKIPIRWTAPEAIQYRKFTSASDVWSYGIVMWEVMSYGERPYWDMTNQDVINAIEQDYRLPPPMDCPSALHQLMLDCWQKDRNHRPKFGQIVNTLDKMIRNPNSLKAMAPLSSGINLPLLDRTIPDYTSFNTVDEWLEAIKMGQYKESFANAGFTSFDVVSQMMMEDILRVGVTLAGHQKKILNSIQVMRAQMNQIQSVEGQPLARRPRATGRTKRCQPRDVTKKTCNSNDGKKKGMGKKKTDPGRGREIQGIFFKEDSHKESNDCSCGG
Experiment: phosphorylation enrichment, bacterial display (enrichment ratio); higher = better substrate or ligand; peptides without Tyr show the background
# maps each entry to its phosphorylation enrichment
Give only the figure.

Any idea what phosphorylation enrichment was measured for SPPEVYAIMRG [NTRK1_Y757_C752S] ?
0.641

Any idea what phosphorylation enrichment was measured for MRALIYNSSTV [PLEKHA7_Y243_A248V] ?
0.657

* * *

Molecular target: Fes (UniProt P07332)
Sequence (P07332 whole entry, looked up): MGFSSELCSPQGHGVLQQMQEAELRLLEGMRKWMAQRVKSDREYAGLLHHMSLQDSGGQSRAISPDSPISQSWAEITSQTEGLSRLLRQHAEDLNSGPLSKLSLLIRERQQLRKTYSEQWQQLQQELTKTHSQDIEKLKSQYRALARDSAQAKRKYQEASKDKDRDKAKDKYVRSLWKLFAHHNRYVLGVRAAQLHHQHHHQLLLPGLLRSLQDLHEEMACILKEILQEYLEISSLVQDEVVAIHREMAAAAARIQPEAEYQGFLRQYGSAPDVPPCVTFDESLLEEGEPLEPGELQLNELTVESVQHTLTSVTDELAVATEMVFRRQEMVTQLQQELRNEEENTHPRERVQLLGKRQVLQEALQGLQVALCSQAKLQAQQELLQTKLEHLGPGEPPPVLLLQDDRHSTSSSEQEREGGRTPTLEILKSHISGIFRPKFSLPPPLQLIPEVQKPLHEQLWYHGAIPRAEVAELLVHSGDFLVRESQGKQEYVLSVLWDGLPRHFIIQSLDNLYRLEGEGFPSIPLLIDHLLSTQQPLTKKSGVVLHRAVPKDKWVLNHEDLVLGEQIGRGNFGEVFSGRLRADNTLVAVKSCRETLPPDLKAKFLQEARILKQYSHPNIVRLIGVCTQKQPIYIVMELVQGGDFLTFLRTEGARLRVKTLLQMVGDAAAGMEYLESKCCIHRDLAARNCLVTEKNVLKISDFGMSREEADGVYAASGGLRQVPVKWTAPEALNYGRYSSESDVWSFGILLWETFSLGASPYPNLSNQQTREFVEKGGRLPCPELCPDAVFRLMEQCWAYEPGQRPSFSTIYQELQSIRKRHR
Assay: phosphorylation enrichment, bacterial display (enrichment ratio); higher = better substrate or ligand; peptides without Tyr show the background
# maps each entry to its phosphorylation enrichment
Give only the figure.

Some solved cases for reference:
• RGDTVYTVNRM [KBTBD13_Y404] = 1.35
• TESNNYIYKTL [FAM83B_Y637] = 0.696
• HVSISYDIPPT [GAB1_Y307] = 1.24
• AHAGEYGVEAL [HBA1_Y25_A27V] = 0.9
• KRRGPYEMSPS [PLPP7_Y172_T174M] = 0.452
• NACGLYHKMNG [GATA5_Y216] = 1.03
• SLESAYPEVSQ [TTF1_Y357_G360V] = 0.941
• LTDLRYKVSGP = 1.11

Any idea what phosphorylation enrichment was measured for LKKLEYLNLPL [LRRC6_Y70_A74P] ?
0.741

* * *

Biological target: MERTK (UniProt Q12866)
Sequence (Q12866 whole entry, looked up): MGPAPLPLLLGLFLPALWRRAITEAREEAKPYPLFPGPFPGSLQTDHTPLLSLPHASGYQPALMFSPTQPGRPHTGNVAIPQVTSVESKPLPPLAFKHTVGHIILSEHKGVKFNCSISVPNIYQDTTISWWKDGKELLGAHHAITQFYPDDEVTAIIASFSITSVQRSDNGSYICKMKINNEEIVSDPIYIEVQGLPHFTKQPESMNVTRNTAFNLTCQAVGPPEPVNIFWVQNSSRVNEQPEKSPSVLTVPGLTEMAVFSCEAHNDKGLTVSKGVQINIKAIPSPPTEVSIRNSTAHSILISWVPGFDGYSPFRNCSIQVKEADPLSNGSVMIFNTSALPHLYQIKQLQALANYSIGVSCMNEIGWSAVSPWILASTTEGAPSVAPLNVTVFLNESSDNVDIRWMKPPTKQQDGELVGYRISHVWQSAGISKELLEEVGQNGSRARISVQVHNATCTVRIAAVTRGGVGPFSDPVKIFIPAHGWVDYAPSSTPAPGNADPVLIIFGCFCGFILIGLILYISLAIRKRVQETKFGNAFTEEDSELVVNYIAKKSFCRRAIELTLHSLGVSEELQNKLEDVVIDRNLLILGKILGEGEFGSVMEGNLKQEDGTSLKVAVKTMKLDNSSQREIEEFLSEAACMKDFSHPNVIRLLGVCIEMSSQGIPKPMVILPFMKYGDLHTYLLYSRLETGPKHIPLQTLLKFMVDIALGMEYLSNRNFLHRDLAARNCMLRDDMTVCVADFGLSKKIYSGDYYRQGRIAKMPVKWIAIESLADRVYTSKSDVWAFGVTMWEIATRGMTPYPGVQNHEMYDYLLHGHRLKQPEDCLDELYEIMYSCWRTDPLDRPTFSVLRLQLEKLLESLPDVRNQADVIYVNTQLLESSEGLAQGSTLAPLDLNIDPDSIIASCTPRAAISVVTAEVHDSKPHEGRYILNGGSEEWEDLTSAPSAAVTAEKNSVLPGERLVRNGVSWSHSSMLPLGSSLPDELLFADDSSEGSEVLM
Test: phosphorylation enrichment, bacterial display (enrichment ratio); higher = better substrate or ligand; peptides without Tyr show the background
# maps each entry to its phosphorylation enrichment
Give only the figure.

Some solved cases for reference:
* HVIKFYGACSQ [RET_Y791_L790F] | 0.545
* SNKLHYQLEQE [PDPR_Y110_Y109H] | 0.442

Any idea what phosphorylation enrichment was measured for RLLVVYPWTQG [HBG2_Y36_R41G] ?
0.27

Any idea what phosphorylation enrichment was measured for PELINYHQPNS [BTK_Y361_H364P] ?
0.657

Any idea what phosphorylation enrichment was measured for HNLFSYPTKFE [MYO3A_Y1396_H1400Y_YF] ?
0.569

Any idea what phosphorylation enrichment was measured for GLDGSYLLRDS [SH2D1A_Y29] ?
0.413

Any idea what phosphorylation enrichment was measured for KLKNAYEESLE [MYH7_Y1488] ?
0.452

Any idea what phosphorylation enrichment was measured for FSDQVYRQHRK [TH_Y230_R233H] ?
0.357

Any idea what phosphorylation enrichment was measured for SWDKRYCEAGC [ITGA2B_Y197_F202C] ?
0.401

Any idea what phosphorylation enrichment was measured for LITILYIGFLG [KCNQ1_Y267_T265I] ?
1.43

Any idea what phosphorylation enrichment was measured for AGQEGYDRLRP [RAC1_Y64_D63G] ?
0.36

Any idea what phosphorylation enrichment was measured for YRRITYHNWRH [PDE6B_Y556] ?
0.562

Any idea what phosphorylation enrichment was measured for GGMTEYKLVVV [KRAS_Y4] ?
0.368

Any idea what phosphorylation enrichment was measured for AHAGKYGAEAL [HBA1_Y25_E24K] ?
0.347

* * *

Target: EPHB1 (UniProt P54762)
Sequence (P54762 whole entry, looked up): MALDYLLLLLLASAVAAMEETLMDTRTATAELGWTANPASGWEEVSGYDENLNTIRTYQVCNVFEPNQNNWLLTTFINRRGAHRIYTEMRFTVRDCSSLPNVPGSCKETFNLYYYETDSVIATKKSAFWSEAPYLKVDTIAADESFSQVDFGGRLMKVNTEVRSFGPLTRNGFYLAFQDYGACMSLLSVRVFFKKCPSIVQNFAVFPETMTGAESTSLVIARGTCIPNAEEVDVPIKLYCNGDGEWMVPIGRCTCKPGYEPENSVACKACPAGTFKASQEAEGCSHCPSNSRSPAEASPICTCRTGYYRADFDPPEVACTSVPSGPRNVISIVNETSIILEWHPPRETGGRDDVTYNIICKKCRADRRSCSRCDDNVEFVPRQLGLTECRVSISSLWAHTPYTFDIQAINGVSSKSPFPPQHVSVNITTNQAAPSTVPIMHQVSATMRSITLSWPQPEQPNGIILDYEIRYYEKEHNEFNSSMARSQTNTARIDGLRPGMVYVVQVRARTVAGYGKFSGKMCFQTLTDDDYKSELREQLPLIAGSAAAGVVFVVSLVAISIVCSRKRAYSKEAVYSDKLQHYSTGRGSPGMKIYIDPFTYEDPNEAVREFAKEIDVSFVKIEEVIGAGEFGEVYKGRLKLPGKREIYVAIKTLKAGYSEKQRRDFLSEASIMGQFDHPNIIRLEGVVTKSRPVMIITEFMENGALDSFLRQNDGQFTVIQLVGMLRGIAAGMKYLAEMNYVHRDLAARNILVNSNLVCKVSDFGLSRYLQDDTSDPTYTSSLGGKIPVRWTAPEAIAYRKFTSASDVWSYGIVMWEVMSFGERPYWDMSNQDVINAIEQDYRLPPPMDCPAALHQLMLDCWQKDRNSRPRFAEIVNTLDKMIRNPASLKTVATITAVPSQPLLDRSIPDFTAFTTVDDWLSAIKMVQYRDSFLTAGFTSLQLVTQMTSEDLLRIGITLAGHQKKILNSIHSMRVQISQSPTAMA
Assay: phosphorylation enrichment, bacterial display (enrichment ratio); higher = better substrate or ligand; peptides without Tyr show the background
Binary classification by phosphorylation enrichment, with 0.6 as an inclusive lower bound for yes (1); all other cases are no (0).

Worked examples follow.
* AEPTGYSAELS [EZR_Y499] | no (0)
* TGDFGYRAPGY [TNS2_Y668] | no (0)

# input for lookup
Reported phosphorylation enrichment at or above 0.6? SMEMKYLEEKN [ZAP70_Y451_G448E]
yes (1)

* * *

Molecular target: Fes (UniProt P07332)
Test: phosphorylation enrichment, bacterial display (enrichment ratio); higher = better substrate or ligand; peptides without Tyr show the background
metric: phosphorylation enrichment
Give only the figure.

Some solved cases for reference:
• QLATEYVFSDF [PANX1_Y10] = 1.85
• DTKPVYQNLRQ [BOD1_Y82_A81V] = 0.752
• RQNNSYTCFTA [SLC20A2_Y386_R382Q_YF] = 0.898
• PLRADYLIARV [HLCS_Y635] = 1.1
• ALAQKYHGGGG [HBB_Y146_H144Q] = 0.491

Any idea what phosphorylation enrichment was measured for GHNDVYISEHV [GRIN2A_Y1423] ?
0.618

Any idea what phosphorylation enrichment was measured for ISDNACQFMLT [MYH7_Y162_Y162C_YF] ?
1.21

Any idea what phosphorylation enrichment was measured for KIKGWYEKCEP [KRT26_Y119] ?
1.21

Any idea what phosphorylation enrichment was measured for EILLSYLRTGY [TGM1_Y365] ?
1.1

Any idea what phosphorylation enrichment was measured for INASGYRVGPA [ACSM1_Y477_I479V] ?
0.901

Any idea what phosphorylation enrichment was measured for MACDRYVAICS [OR8D4_Y123] ?
0.841

Any idea what phosphorylation enrichment was measured for QDGYSYLSRQM [LDLR_Y847_P848L] ?
0.94

Any idea what phosphorylation enrichment was measured for LLVVLYKYRCF [PSEN1_Y154_Y159F] ?
2.42

Any idea what phosphorylation enrichment was measured for MANYVYKAGPS [MAML2_Y515_M514V] ?
0.643

* * *

Molecular target: EPHB1 (UniProt P54762)
Test: phosphorylation enrichment, bacterial display (enrichment ratio); higher = better substrate or ligand; peptides without Tyr show the background
# maps each entry to its phosphorylation enrichment

* KNKKDYYDMYE [SLC26A3_Y526] | 1.13

Any idea what phosphorylation enrichment was measured for AFAEVYEGQVS [ALK_Y1131_G1128A] ?
0.559

* * *

# maps each entry to its phosphorylation enrichment
Biological target: EPHB1 (UniProt P54762)
Test: phosphorylation enrichment, bacterial display (enrichment ratio); higher = better substrate or ligand; peptides without Tyr show the background
Give only the figure.

Some solved cases for reference:
* ISIFHYAKGQP [MPZ_Y82] | 0.69
* PFAEPYADFGG [APBA1_Y187_S184A_YF] | 0.695
* FIRKDYEACKA [BBS4_Y48_YF] | 0.651
* GGQVFHNSEYG [FLT4_Y1333_Y1333H] | 0.438
* PLRADYLIARV [HLCS_Y635] | 0.312

Any idea what phosphorylation enrichment was measured for TTPGPYRSIFF [MPG_Y71_YF] ?
0.493

Any idea what phosphorylation enrichment was measured for TEAEPYYCSLR [NPHS1_Y1138_R1140C] ?
1.5

* * *

Biological target: c-Src SH2
Test: SH2 binding enrichment of the phosphorylated peptide, bacterial display (enrichment ratio); higher = better substrate or ligand; peptides without Tyr show the background
# maps each entry to its SH2 binding enrichment
Give only the figure.

• VCDALYPPGPP = 0.62
• DKATEYIQYMR [MAX_Y70] = 0.469
• KFLENYLNCLL [PLD2_Y169_R172C_YF] = 1.25
• HNMPIYEGFAL [ACTA1_Y168_V165M_YF] = 0.431
• RHTRSYDYMEG [FGF7_Y56] = 3.83
• WQQQSYLGSGI [CTNNB1_Y30_D32G] = 0.499
• EDEGLYMVRVP [MYOM3_Y343] = 0.472

Now consider the entry below.
Any idea what SH2 binding enrichment was measured for YCRIMYDIFPF [INTS13_Y67] ?
1.64
